In this section, each of the sequences is paired with its reported shrunken log2 fold change.
- System: Escherichia coli TOP10
- Test Summary: shrunken log2 fold change of peptide-encoding DNA abundance (4.5 h post-induction vs induction); higher = less antimicrobial activity (less host growth inhibition)
- Run Conditions: time post-induction: 4.5 h; library: site-saturation at positions 5, 18, 19, 20
Just the number, please, no unit after it.

Before answering, review these 5 worked examples.
chain=RRIRWRPPRLPRPRPRPNIYPRP assay_system="Escherichia coli TOP10" result_type="shrunken log2 fold change" meas_value=-0.307
chain=RRIRQRPPRLPRPRPRPQYMPRP assay_system="Escherichia coli TOP10" result_type="shrunken log2 fold change" meas_value=-0.587
chain=RRIRDRPPRLPRPRPRPHQRPRP assay_system="Escherichia coli TOP10" result_type="shrunken log2 fold change" meas_value=0.0159
chain=RRIRPRPPRLPRPRPRPVNTPRP assay_system="Escherichia coli TOP10" result_type="shrunken log2 fold change" meas_value=-0.634
chain=RRIRKRPPRLPRPRPRPDYYPRP assay_system="Escherichia coli TOP10" result_type="shrunken log2 fold change" meas_value=0.0521

response.value for RRIRIRPPRLPRPRPRPNIVPRP (field: shrunken log2 fold change) = -0.665

response.value for RRIRARPPRLPRPRPRPNYYPRP (field: shrunken log2 fold change) = -0.414

response.value for RRIRCRPPRLPRPRPRPCYDPRP (field: shrunken log2 fold change) = -0.316

response.value for RRIRQRPPRLPRPRPRPQCKPRP (field: shrunken log2 fold change) = -0.102

response.value for RRIRFRPPRLPRPRPRPVKIPRP (field: shrunken log2 fold change) = -0.0378

response.value for RRIRKRPPRLPRPRPRPHLMPRP (field: shrunken log2 fold change) = -0.129

* * *

- System: Escherichia coli TOP10
- Test Summary: shrunken log2 fold change of peptide-encoding DNA abundance (4.5 h post-induction vs induction); higher = less antimicrobial activity (less host growth inhibition)
- Run Conditions: time post-induction: 4.5 h; library: site-saturation at positions 5, 18, 19, 20
Please use Met whenever shrunken log2 fold change is not below -0.2, and Not met whenever it is.

chain=RRIRLRPPRLPRPRPRPKCDPRP assay_system="Escherichia coli TOP10" qualitative_label="Not met"
chain=RRIRDRPPRLPRPRPRPYNWPRP assay_system="Escherichia coli TOP10" qualitative_label="Not met"
chain=RRIRFRPPRLPRPRPRPHNYPRP assay_system="Escherichia coli TOP10" qualitative_label="Not met"
chain=RRIRTRPPRLPRPRPRPNVAPRP assay_system="Escherichia coli TOP10" qualitative_label=Met
chain=RRIRDRPPRLPRPRPRPCEQPRP assay_system="Escherichia coli TOP10" qualitative_label=Met
chain=RRIRLRPPRLPRPRPRPSDMPRP assay_system="Escherichia coli TOP10" qualitative_label=Met

Task: Is the recorded value of shrunken log2 fold change equal to or greater than -0.2 for this sequence? RRIRERPPRLPRPRPRPVNLPRP
Result: Not met

Task: Is the recorded value of shrunken log2 fold change equal to or greater than -0.2 for this sequence? RRIRDRPPRLPRPRPRPNDIPRP
Result: Not met

* * *

In this section, each of the sequences is paired with its reported shrunken log2 fold change.
- Test system: Escherichia coli TOP10
- Test Summary: shrunken log2 fold change of peptide-encoding DNA abundance (4.5 h post-induction vs induction); higher = less antimicrobial activity (less host growth inhibition)
- Run Conditions: time post-induction: 4.5 h; library: site-saturation at positions 5, 18, 19, 20
Just the number, please, no unit after it.

chain=RRIRHRPPRLPRPRPRPVGFPRP assay_system="Escherichia coli TOP10" meas_value=-0.203
chain=RRIRSRPPRLPRPRPRPVMIPRP assay_system="Escherichia coli TOP10" meas_value=-0.0753
chain=RRIRLRPPRLPRPRPRPTHYPRP assay_system="Escherichia coli TOP10" meas_value=-0.18
chain=RRIRFRPPRLPRPRPRPAMNPRP assay_system="Escherichia coli TOP10" meas_value=-0.102
chain=RRIRDRPPRLPRPRPRPEQPPRP assay_system="Escherichia coli TOP10" meas_value=-0.0458
chain=RRIRTRPPRLPRPRPRPEVDPRP assay_system="Escherichia coli TOP10" meas_value=0.036
chain=RRIRKRPPRLPRPRPRPCAGPRP assay_system="Escherichia coli TOP10" meas_value=0.257
chain=RRIRLRPPRLPRPRPRPSGMPRP assay_system="Escherichia coli TOP10" meas_value=-0.204

Considering RRIRWRPPRLPRPRPRPANTPRP , its shrunken log2 fold change with Escherichia coli TOP10 was recorded as -0.0364

Considering RRIRCRPPRLPRPRPRPVMFPRP , its shrunken log2 fold change with Escherichia coli TOP10 was recorded as -0.154

Considering RRIRHRPPRLPRPRPRPDTIPRP , its shrunken log2 fold change with Escherichia coli TOP10 was recorded as -0.0628

Considering RRIRPRPPRLPRPRPRPQKWPRP , its shrunken log2 fold change with Escherichia coli TOP10 was recorded as 0.17

Considering RRIRIRPPRLPRPRPRPWDTPRP , its shrunken log2 fold change with Escherichia coli TOP10 was recorded as -0.231

Considering RRIRGRPPRLPRPRPRPRKYPRP , its shrunken log2 fold change with Escherichia coli TOP10 was recorded as 0.0397

Considering RRIRGRPPRLPRPRPRPNDWPRP , its shrunken log2 fold change with Escherichia coli TOP10 was recorded as 0.235

* * *

- Tested on: Escherichia coli TOP10
- Test Summary: shrunken log2 fold change of peptide-encoding DNA abundance (4.5 h post-induction vs induction); higher = less antimicrobial activity (less host growth inhibition)
- Run Conditions: time post-induction: 4.5 h; library: site-saturation at positions 5, 18, 19, 20
Classify on shrunken log2 fold change using interval 1 (below -0.1), interval 2 (-0.1 to below 0.1), interval 3 (0.1 or more)

chain=RRIRPRPPRLPRPRPRPYKLPRP assay_system="Escherichia coli TOP10" qualitative_label="interval 1"
chain=RRIRVRPPRLPRPRPRPNWYPRP assay_system="Escherichia coli TOP10" qualitative_label="interval 1"
chain=RRIRGRPPRLPRPRPRPMKWPRP assay_system="Escherichia coli TOP10" qualitative_label="interval 3"
chain=RRIRQRPPRLPRPRPRPMWEPRP assay_system="Escherichia coli TOP10" qualitative_label="interval 2"

Task: Which of the defined bands does the recorded shrunken log2 fold change of RRIRLRPPRLPRPRPRPTNLPRP sit within?
Result: interval 1

Task: Which of the defined bands does the recorded shrunken log2 fold change of RRIRNRPPRLPRPRPRPKTMPRP sit within?
Result: interval 3

* * *

- Test system: Escherichia coli TOP10
- Test Summary: shrunken log2 fold change of peptide-encoding DNA abundance (4.5 h post-induction vs induction); higher = less antimicrobial activity (less host growth inhibition)
- Run Conditions: time post-induction: 4.5 h; library: site-saturation at positions 5, 18, 19, 20
In this section, each of the sequences is paired with its reported shrunken log2 fold change.
Just the number, please, no unit after it.

chain=RRIRMRPPRLPRPRPRPSQAPRP result_type="shrunken log2 fold change" meas_value=0.689
chain=RRIRQRPPRLPRPRPRPRTSPRP result_type="shrunken log2 fold change" meas_value=0.131
chain=RRIRDRPPRLPRPRPRPHNWPRP result_type="shrunken log2 fold change" meas_value=-0.144
chain=RRIRGRPPRLPRPRPRPWFCPRP result_type="shrunken log2 fold change" meas_value=-0.444
chain=RRIRTRPPRLPRPRPRPINVPRP result_type="shrunken log2 fold change" meas_value=-0.509
chain=RRIRVRPPRLPRPRPRPGCAPRP result_type="shrunken log2 fold change" meas_value=0.757

response.value for RRIRVRPPRLPRPRPRPCTLPRP (field: shrunken log2 fold change) = -0.196

response.value for RRIRMRPPRLPRPRPRPCQFPRP (field: shrunken log2 fold change) = 0.0126

response.value for RRIRRRPPRLPRPRPRPPNFPRP (field: shrunken log2 fold change) = 0.0782

response.value for RRIRPRPPRLPRPRPRPIALPRP (field: shrunken log2 fold change) = -0.0697

response.value for RRIRSRPPRLPRPRPRPYTTPRP (field: shrunken log2 fold change) = -0.0205

response.value for RRIRMRPPRLPRPRPRPCREPRP (field: shrunken log2 fold change) = -0.126

response.value for RRIRARPPRLPRPRPRPQRMPRP (field: shrunken log2 fold change) = 0.0748

response.value for RRIRNRPPRLPRPRPRPIPTPRP (field: shrunken log2 fold change) = -0.0847

response.value for RRIRWRPPRLPRPRPRPCMHPRP (field: shrunken log2 fold change) = -0.0533

response.value for RRIRPRPPRLPRPRPRPKRVPRP (field: shrunken log2 fold change) = 0.0499

* * *

- Tested on: Escherichia coli TOP10;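 note: peptides expressed intracellularly from a pBAD plasmid library in pooled LB shake-flask culture, induced with 0.3% L-arabinose, DNA abundance read by NGS, three biological replicates, DESeq2 with apeglm shrinkage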
- Test Summary: shrunken log2 fold change of peptide-encoding DNA abundance (4.5 h post-induction vs induction); higher = less antimicrobial activity (less host growth inhibition)
- Run Conditions: time post-induction: 4.5 h; library: site-saturation at positions 5, 18, 19, 20
Result Type: shrunken log2 fold change

Before answering, review these 8 worked examples.
chain=RRIRHRPPRLPRPRPRPRFVPRP meas_value=-0.0283
chain=RRIRVRPPRLPRPRPRPKPDPRP meas_value=0.206
chain=RRIRTRPPRLPRPRPRPNEAPRP meas_value=0.172
chain=RRIRGRPPRLPRPRPRPTCWPRP meas_value=0.764
chain=RRIRCRPPRLPRPRPRPKADPRP meas_value=-0.052
chain=RRIRHRPPRLPRPRPRPRLSPRP meas_value=-0.0962
chain=RRIRNRPPRLPRPRPRPNKPPRP meas_value=-0.122
chain=RRIRRRPPRLPRPRPRPGTMPRP meas_value=0.186

response.value for RRIRARPPRLPRPRPRPKRPPRP (field: shrunken log2 fold change) = 1.03

response.value for RRIRIRPPRLPRPRPRPICPPRP (field: shrunken log2 fold change) = 0.0188

response.value for RRIRKRPPRLPRPRPRPENEPRP (field: shrunken log2 fold change) = 0.918

response.value for RRIRDRPPRLPRPRPRPGSPPRP (field: shrunken log2 fold change) = 0.0355
